EXPERIMENTAL DETAILS: Intrinsic clearance in dog hepatocytes measured per million cells at 1 uM measured for 0.5 to 120 mins by LC-MS/MS analysis
Format: ADME, cell-based, Canis lupus familiaris, Hepatocyte
RUN PARAMETERS: time 0.5-120 min, read-out: CLH
QUANTITY MEASURED: hepatocyte CLint at 1 µM (µL/min/1e6 cells)

I = CN1CCN([C@@H]2CCCN(c3cnc(C(N)=O)c(Nc4ccc(C5CCN(CC6CCN(c7ccc(C(=O)N[C@H]8CCC(=O)NC8=O)nc7)CC6)CC5)cc4)n3)C2)C1=O
II = CNC(=O)COc1cc2cc(Nc3nc(N4CCC(O[C@H]5C[C@H](N6CCC(c7ccc8c(c7F)CN(C7CCC(=O)NC7=O)C8=O)CC6)C5)CC4)ncc3Cl)ccc2n(C(C)C)c1=O (some centres undefined)
III = COc1cc(-c2cn(C)c(=O)c3cnc(N4CCC4)cc23)cc(OC)c1CN1CCC(CN2CCC3(CC2)CN(c2ccc4c(c2)C(=O)N([C@H]2CCC(=O)NC2=O)C4)C3)CC1
Task: Put the entries in order of hepatocyte CLint at 1 µM, starting with the largest number. Please express your ranking as an ordered list of the labels.
Result: II, III, I
(II: 8 µL/min/1e6 cells, III: 5 µL/min/1e6 cells, I: 3 µL/min/1e6 cells)
